Assay: Bi-directional Caco-2 permeability (transport) assay
Type: in vitro ADME, human
Settings: Caco-2, OCT 10 μM; P-gp inhibition (rhodamine 123 1 mM)
endpoint-name: Papp B→A (×10⁻⁶ cm/s)
Note: unit ×10⁻⁶ cm/s is implicit; provide only the numeric part.

Sample C[C@@H](O)[C@@H]1NC(=O)[C@H](CCCCN)NC(=O)[C@@H](Cc2c[nH]c3ccccc23)NC(=O)[C@H](Cc2ccccc2)NC(=O)[C@@H](NC(=O)[C@H](N)Cc2ccccc2)CSSC[C@@H](C(=O)N[C@H](CO)[C@@H](C)O)NC1=O [OCT, octreotide] — what was its Papp B→A?
0.297

###

Test: Bi-directional Caco-2 permeability (transport) assay
Type: in vitro ADME, human
Conditions: Caco-2, OCT 1 μM; MRP2 inhibition (probenecid 1 mM)
endpoint-name: Papp A→B (×10⁻⁶ cm/s)
# unit: ×10⁻⁶ cm/s | format: bare number

Fill blank: measured Papp A→B of the compound C[C@@H](O)[C@@H]1NC(=O)[C@H](CCCCN)NC(=O)[C@@H](Cc2c[nH]c3ccccc23)NC(=O)[C@H](Cc2ccccc2)NC(=O)[C@@H](NC(=O)[C@H](N)Cc2ccccc2)CSSC[C@@H](C(=O)N[C@H](CO)[C@@H](C)O)NC1=O [OCT, octreotide] is ____.
0.007

###

Assay: Bi-directional Caco-2 permeability (transport) assay
Format: in vitro ADME, human
Conditions: Caco-2, OCT 1 μM; MRP2 and P-gp inhibition
endpoint-name: Papp A→B (×10⁻⁶ cm/s)
Report only the number, with the unit ×10⁻⁶ cm/s understood.

Using the record for C[C@@H](O)[C@@H]1NC(=O)[C@H](CCCCN)NC(=O)[C@@H](Cc2c[nH]c3ccccc23)NC(=O)[C@H](Cc2ccccc2)NC(=O)[C@@H](NC(=O)[C@H](N)Cc2ccccc2)CSSC[C@@H](C(=O)N[C@H](CO)[C@@H](C)O)NC1=O [OCT, octreotide] , report its Papp A→B.
0.022

###

Assay: Bi-directional Caco-2 permeability (transport) assay
Assay type: in vitro ADME, human
Conditions: Caco-2, OCT 50 μM; P-gp inhibition (rhodamine 123 1 mM)
endpoint-name: Papp B→A (nm/s)
Reply numerically in nm/s, unit not repeated.

Need Papp B→A of C[C@@H](O)[C@@H]1NC(=O)[C@H](CCCCN)NC(=O)[C@@H](Cc2c[nH]c3ccccc23)NC(=O)[C@H](Cc2ccccc2)NC(=O)[C@@H](NC(=O)[C@H](N)Cc2ccccc2)CSSC[C@@H](C(=O)N[C@H](CO)[C@@H](C)O)NC1=O [OCT, octreotide] , thanks.
10.4

###

Test: Bi-directional Caco-2 permeability (transport) assay
Type: in vitro ADME, human
Conditions: Caco-2, OCT 1 μM; MRP2 and P-gp inhibition
endpoint-name: Papp B→A (×10⁻⁶ cm/s)
# number only, unit ×10⁻⁶ cm/s dropped from output

Return reported Papp B→A; argument: C[C@@H](O)[C@@H]1NC(=O)[C@H](CCCCN)NC(=O)[C@@H](Cc2c[nH]c3ccccc23)NC(=O)[C@H](Cc2ccccc2)NC(=O)[C@@H](NC(=O)[C@H](N)Cc2ccccc2)CSSC[C@@H](C(=O)N[C@H](CO)[C@@H](C)O)NC1=O [OCT, octreotide]
0.006

###

Experiment: Bi-directional Caco-2 permeability (transport) assay
Type: in vitro ADME, human
Conditions: Caco-2, OCT 10 μM; P-gp inhibition (rhodamine 123 1 mM)
endpoint-name: Papp A→B (×10⁻⁶ cm/s)
Give the quantity in ×10⁻⁶ cm/s, number only.

I am curious: what Papp A→B value has been reported for C[C@@H](O)[C@@H]1NC(=O)[C@H](CCCCN)NC(=O)[C@@H](Cc2c[nH]c3ccccc23)NC(=O)[C@H](Cc2ccccc2)NC(=O)[C@@H](NC(=O)[C@H](N)Cc2ccccc2)CSSC[C@@H](C(=O)N[C@H](CO)[C@@H](C)O)NC1=O [OCT, octreotide] ?
0.168
